Numbers sourced from patent US12139520B2.

Assay Target: hAM1R (human, UniProt Q16602)
Measurement Notes: cell-based or functional assay
Bridge positions count the residues as written; N and C are the ends. Square brackets hold non-standard residues; d marks the D form. Ends that are not written are not given here. Hyp = O=C(O)[C@@H]1C[C@@H](O)CN1; Cit = NC(=O)NCCC[C@H](N)C(=O)O
Property: hAM1R EC50 (cAMP) (µM)
One number for each entry, in µM.

Below: 3 binders and their reported hAM1R EC50 (cAMP).
>  <Binder>
GCRFGTCTVQ[Cit]LAHQIYQFTDKDKDNVAPRSNVGPQG[Hyp]-NH2 (disulfide 2-7 (inferred); ends not checked) [SEQ ID NO: 289]

>  <Unit Label>
µM

>  <hAM1R EC50 (cAMP)>
3.5

$$$$
>  <Binder>
GCRFGTCTVQRLAHFLYQFTDKDKDNVAPRTKIGPQGY [SEQ ID NO: 365]

>  <Unit Label>
µM

>  <hAM1R EC50 (cAMP)>
0.00121

$$$$
>  <Binder>
KCNTATCATQRLANFLVHSSNNFGAIAPSTKIGPNGY [SEQ ID NO: 128]

>  <Unit Label>
µM

>  <hAM1R EC50 (cAMP)>
0.13

$$$$

Q. Please give the measured hAM1R EC50 (cAMP) for this binder: GCRFGTCTVQ[Cit]LAHFLYQFTDKDKDNVAPRTKVGSNGY-NH2 (disulfide 2-7 (inferred); ends not checked) [SEQ ID NO: 279]
A. 0.241
